- measurementTarget: T1, human IGF-IR-Fc fusion (human, UniProt P08069 31-932)
- T1 construct: range 1-932; If it counts on the precursor, it includes the signal peptide; also called IGF1R-Fc; not shown: hinge and constant regions of human IgG
- T1 sequence (P08069 31-932 limits assumed, form in doubt): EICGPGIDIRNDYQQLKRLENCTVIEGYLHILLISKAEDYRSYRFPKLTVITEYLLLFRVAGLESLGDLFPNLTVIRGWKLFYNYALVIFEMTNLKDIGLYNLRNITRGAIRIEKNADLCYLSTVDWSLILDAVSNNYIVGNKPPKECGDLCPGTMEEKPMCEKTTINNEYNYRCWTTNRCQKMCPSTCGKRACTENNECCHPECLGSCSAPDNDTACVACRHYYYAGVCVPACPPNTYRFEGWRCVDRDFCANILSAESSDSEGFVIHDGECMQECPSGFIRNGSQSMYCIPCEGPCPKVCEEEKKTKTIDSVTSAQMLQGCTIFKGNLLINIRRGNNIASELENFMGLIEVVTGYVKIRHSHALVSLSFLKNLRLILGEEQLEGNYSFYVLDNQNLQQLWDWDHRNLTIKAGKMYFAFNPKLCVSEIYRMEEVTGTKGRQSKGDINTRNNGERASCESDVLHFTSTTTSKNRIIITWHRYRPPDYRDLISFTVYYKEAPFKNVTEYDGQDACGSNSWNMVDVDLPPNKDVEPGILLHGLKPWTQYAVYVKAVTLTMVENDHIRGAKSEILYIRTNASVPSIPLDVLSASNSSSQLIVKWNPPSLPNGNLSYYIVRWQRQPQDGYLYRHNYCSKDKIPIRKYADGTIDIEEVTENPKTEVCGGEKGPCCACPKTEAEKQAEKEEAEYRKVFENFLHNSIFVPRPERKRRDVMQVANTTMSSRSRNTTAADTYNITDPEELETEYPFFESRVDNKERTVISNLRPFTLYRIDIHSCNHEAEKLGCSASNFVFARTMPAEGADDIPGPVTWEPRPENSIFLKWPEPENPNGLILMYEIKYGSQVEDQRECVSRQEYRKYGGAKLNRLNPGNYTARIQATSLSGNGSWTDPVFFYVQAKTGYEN
- testSummary: SPR (Biacore), IGF-IR-Fc captured on Protein A/G, HTPP purified binder in solution, n=1, KD approximate
readoutLabel: Kd

So, V2B-GS5-385A08 (designed binder, also called V2B-GS5-385A08 (Ser tail)) single chain: MGVSDVPRDLEVVAATPTSLLISWRHPHFPTRYYRITYGETGGNSPVQEFTVPLQPPTATISGLKPGVDYTITVYAVTDGRNGRLLSIPISINYRTEIDKGSGSGSGSGSVSDVPRDLEVVAATPTSLLISWSARLKVARYYRITYGETGGNSPVQEFTVPKNVYTATISGLKPGVDYTITVYAVTRFRDYQPISINYRTEIDKPSQHHHHHH ? Its Kd was ~0.2 nM

So, 385A08-GS5-V2B (designed binder, also called 385A08-GS5-V2B (Ser tail)) single chain: MGVSDVPRDLEVVAATPTSLLISWSARLKVARYYRITYGETGGNSPVQEFTVPKNVYTATISGLKPGVDYTITVYAVTRFRDYQPISINYRTEIDKGSGSGSGSGSVSDVPRDLEVVAATPTSLLISWRHPHFPTRYYRITYGETGGNSPVQEFTVPLQPPTATISGLKPGVDYTITVYAVTDGRNGRLLSIPISINYRTEIDKPSQHHHHHH ? Its Kd was ~0.3 nM
